Tested on: A549 NSCLC
PROTOCOL_NOTES: NCI tumour cell line growth inhibition, 48 h; in the data active means GI50 below about 0.43 µM; inactive means the rest
Classes used: Y (active), N (inactive)

- MOLECULE: "COc1cccc(Cn2c(-c3nonc3N)nc3ccccc32)c1"
  CATEGORY_LABEL: "N"
- MOLECULE: "Fc1ccc(-c2nn3c(CNc4ccccc4)nnc3s2)cc1"
  CATEGORY_LABEL: "N"
- MOLECULE: "C=C(C)[C@@H]1CC[C@]2(C(N)=O)CC[C@]3(C)[C@H](CC[C@@H]4[C@@]5(C)CC[C@H](O)C(C)(C)[C@@H]5CC[C@]43C)[C@@H]12"
  CATEGORY_LABEL: "N"
- MOLECULE: "CCN1C(=O)N(CC)C2C1NN=c1s/c(=C\\c3ccccc3F)c(=O)n12 (centres undefined)"
  CATEGORY_LABEL: "Y"
